EC50 by entry:
Molecular target: Human opiate κ receptors (Homo sapiens, UniProt P41145)
Sequence (P41145 whole entry): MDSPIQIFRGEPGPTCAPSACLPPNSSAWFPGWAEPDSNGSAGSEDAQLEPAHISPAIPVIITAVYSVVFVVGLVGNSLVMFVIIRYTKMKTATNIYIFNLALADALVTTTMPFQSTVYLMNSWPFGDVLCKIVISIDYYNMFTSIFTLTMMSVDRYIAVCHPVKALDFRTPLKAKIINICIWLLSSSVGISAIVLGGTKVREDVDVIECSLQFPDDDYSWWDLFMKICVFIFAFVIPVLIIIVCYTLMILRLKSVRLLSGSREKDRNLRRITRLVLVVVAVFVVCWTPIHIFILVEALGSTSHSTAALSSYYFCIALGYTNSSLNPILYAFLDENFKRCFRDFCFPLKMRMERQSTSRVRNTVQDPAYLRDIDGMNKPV
Assay: κ opioid receptor functional assay, [35S]GTPγS binding (assay C)
Format: biochemical
Settings: GTPγS EC50 (nM)

Example entries begin here.
O=C(C1CCNC1)N1CCN(C(=O)Cc2ccc(Cl)c(Cl)c2)C2C(N3CCCC3)CCCC21 (racemic) = 100 to 1000 nM
COC(=O)N1CCN(C(=O)Cc2ccc(Cl)c(Cl)c2)[C@@H]2[C@@H](N3CC[C@@H](O)C3)CCC[C@@H]21 = < 10 nM
CC(C)NC(=O)N1CCN(C(=O)Cc2ccc(Cl)c(Cl)c2)[C@@H]2[C@@H](N3CCCC3)CCC[C@@H]21 = < 10 nM
COC(=O)N1CCN(C(=O)Cc2ccc(C(F)(F)F)c(Cl)c2)[C@@H]2[C@@H](N3CC[C@@H](O)C3)CCC[C@@H]21 = < 10 nM
CCN(C)[C@H]1CCC[C@H]2[C@@H]1N(C(=O)Cc1ccc(Cl)c(Cl)c1)CCN2C(=O)OC = < 10 nM

In: So what EC50 did COC(=O)N1CCN(C(=O)Cc2ccc(Cl)c(F)c2)[C@@H]2[C@@H](N3CCCC3)CCC[C@@H]21 get with Human opiate κ receptors (Homo sapiens, UniProt P41145)?
Out: 10 to 100 nM

In: Please tell me: EC50 of COC(=O)N1CCN(C(=O)Cc2ccc(F)c(Cl)c2)[C@@H]2[C@@H](N3CC[C@H](O)C3)CCC[C@@H]21 , system Human opiate κ receptors (Homo sapiens, UniProt P41145)?
Out: < 10 nM

In: Hello, I am looking for reported EC50 with Human opiate κ receptors (Homo sapiens, UniProt P41145) for COC(=O)N1CCN(C(=O)Cc2ccc(C(F)(F)F)c(F)c2)[C@@H]2[C@@H](N3CC[C@H](O)C3)CCC[C@@H]21 . Could you help?
Out: < 10 nM

In: # value lookup — system Human opiate κ receptors (Homo sapiens, UniProt P41145), readout EC50, item COC(=O)N1CCN(C(=O)Cc2ccc(C(F)(F)F)cc2)[C@@H]2[C@@H](N3CC[C@H](O)C3)CCC[C@@H]21
Out: < 10 nM

In: Provide the documented EC50 with Human opiate κ receptors (Homo sapiens, UniProt P41145) as the system for NC(=O)COC(=O)N1CCN(C(=O)Cc2ccc(Cl)c(Cl)c2)C2C(N3CCCC3)CCCC21 (racemic)
Out: 10 to 100 nM

In: I'm curious: which EC50 was measured for COC(=O)N1CCN(C(=O)Cc2ccc(Cl)c(Cl)c2)[C@@H]2[C@@H](N3CC[C@H](O)C3)CCC[C@@H]21 tested on Human opiate κ receptors (Homo sapiens, UniProt P41145)?
Out: < 10 nM

In: # value lookup — system Human opiate κ receptors (Homo sapiens, UniProt P41145), readout EC50, item CS(=O)(=O)N1CCN(C(=O)Cc2ccc(Cl)c(Cl)c2)[C@@H]2[C@@H](N3CCCC3)CCC[C@@H]21
Out: < 10 nM

In: Short answer please: EC50, Human opiate κ receptors (Homo sapiens, UniProt P41145), entry COC(=O)C(=O)N1CCN(C(=O)Cc2ccc(Cl)c(Cl)c2)C2C(N3CCCC3)CCCC21 (racemic)
Out: < 10 nM

In: Please tell me: EC50 of COC(=O)N1CCN(C(=O)Cc2ccc(F)c(Cl)c2)[C@@H]2[C@@H](N3CCCC3)CCC[C@@H]21 , system Human opiate κ receptors (Homo sapiens, UniProt P41145)?
Out: 10 to 100 nM

----------
Target: Human opiate κ receptors (Homo sapiens)
Test: κ opioid receptor functional assay, [35S]GTPγS binding (assay C)
Format: biochemical
Conditions: 0.5 h, read-out: % activation functional assay at 1 μM
property: activation at 1 µM (%)
Output spec: scalar in %, unitless text.

See these solved cases before continuing.
COC(=O)N1CCN(C(=O)Cc2ccc(F)c(F)c2)[C@@H]2[C@@H](N3CC[C@H](O)C3)CCC[C@@H]21 = 108
O=C(C1CCNC1)N1CCN(C(=O)Cc2ccc(Cl)c(Cl)c2)C2C(N3CCCC3)CCCC21 (racemic) = 64
COC(=O)N1CCN(C(=O)Cc2ccc(Cl)c(Cl)c2)[C@H]2[C@H]1CCC[C@@H]2N1CCCC1 (single isomer, unassigned) [Reference compound D, reference compound] = 92

In: What value of measured activation at 1 µM is listed for COC(=O)N1CCN(C(=O)Cc2ccc(F)c(Cl)c2)[C@@H]2[C@@H](N3CCCC3)CCC[C@@H]21 ?
Out: 105

In: What value of activation at 1 µM has been recorded for this entry: COC(=O)N1CCN(C(=O)Cc2ccc(Cl)c(Cl)c2)[C@@H]2[C@@H](N(C)C)CCC[C@@H]21
Out: 96

In: // lookup activation at 1 µM for COC(=O)N1CCN(C(=O)Cc2ccc(Cl)c(Cl)c2)C2C1CCCC2N(C)C(C)C (racemic)
Out: 98

In: // lookup activation at 1 µM for COC(=O)N1CCN(C(=O)Cc2ccc(Cl)s2)C2C(N3CCCC3)CCCC21 (racemic)
Out: 97

----------
Biological target: Human opiate κ receptors (Homo sapiens)
Assay: κ opioid receptor functional assay, [35S]GTPγS binding (assay C)
Format: biochemical
Conditions: 0.5 h, read-out: % activation functional assay at 1 μM
property: activation at 1 µM (%)
Supply the numeric figure in %, leaving out any unit text.

Completed entries (count: 3):
COC(=O)N1CCN(C(=O)Cc2cccc(Cl)c2)C2C(N3CCCC3)CCCC21 (racemic) = 96
NC(=O)C(=O)N1CCN(C(=O)Cc2ccc(Cl)c(Cl)c2)C2C(N3CCCC3)CCCC21 (racemic) = 100
CC(C)OC(=O)COC(=O)N1CCN(C(=O)Cc2ccc(Cl)c(Cl)c2)[C@@H]2[C@@H](N3CCCC3)CCC[C@@H]21 = 104

In: Item under review: COC(=O)N1CCN(C(=O)Cc2ccc(OC)c(F)c2)C2C(N3CCCC3)CCCC21 (racemic) . Reported activation at 1 µM?
Out: 78

In: Can you share its activation at 1 µM? I mean this molecule: COC(=O)N1CCN(C(=O)Cc2ccc(Cl)c(Cl)c2)[C@H]2[C@H](N3CCCC3)CCC[C@@H]21 (single isomer, unassigned) [Reference compound C, reference compound]
Out: 85

In: Which measured activation at 1 µM value corresponds to CC(=O)OCC(=O)N1CCN(C(=O)Cc2ccc(Cl)c(Cl)c2)C2C(N3CCCC3)CCCC21 (racemic) ?
Out: 96

In: Returns the measured activation at 1 µM for the input molecule. Input: COC(=O)N1CCN(C(=O)Cc2ccc(F)c(F)c2)C2C(N3CCCC3)CCCC21 (racemic)
Out: 112

----------
Target: UniProt P41145
Assay type: binding
Design: expressed in transfected cells; host or cells: HEK-293 cell membranes
Threshold 70%: % binding at 100 nM strictly smaller gives t, otherwise f.

Before answering, review these 5 worked examples.
CC(C)NS(=O)(=O)N1CCN(C(=O)Cc2ccc(Cl)c(Cl)c2)[C@@H]2[C@@H](N3CC[C@H](O)C3)CCC[C@@H]21 = t
CNC(=O)C(=O)N1CCN(C(=O)Cc2ccc(Cl)c(Cl)c2)[C@@H]2[C@@H](N3CC[C@H](O)C3)CCC[C@@H]21 = t
COC(=O)N1CCN(C(=O)Cc2ccc(Cl)c(Cl)c2)C2C(N3CCC(C(N)=O)C3)CCCC21.Cl (mixture of isomers) = f
Cl.O=C(Cc1ccc(Cl)c(Cl)c1)N1CCN(S(=O)(=O)c2cn[nH]c2)C2CCCC(N3CCC(O)C3)C21 (centres unmarked) = f
COC(=O)N1CCN(C(=O)Cc2ccc([N+](=O)[O-])cc2)[C@@H]2[C@@H](N3CCCC3)CCC[C@@H]21.Cl (racemic) = t

In: Input COC(=O)N1CCN(C(=O)Cc2ccc(Cl)c(Cl)c2)[C@@H]2[C@@H](N(C)C)CCC[C@@H]21.Cl (racemic) ; condition: % binding at 100 nM strictly below 70%. Does it hold?
Out: f

In: % binding at 100 nM under 70%? Item: CS(=O)(=O)N1CCN(C(=O)Cc2ccc(F)c(Cl)c2)C2C(N3CCC(O)C3)CCCC21.Cl (centres unmarked)
Out: f

In: Does COC(=O)N1CCN(C(=O)Cc2cc(F)cc(F)c2)[C@@H]2[C@@H](N3CCCC3)CCC[C@@H]21.Cl (racemic) have % binding at 100 nM strictly under 70%?
Out: t

In: Consider the molecule Cl.O=C(Cc1ccc(Cl)c(Cl)c1)N1CCN(S(=O)(=O)N2CCCC2)C2CCCC(N3CCC(O)C3)C21 (centres unmarked) . Is its % binding at 100 nM strictly less than 70%?
Out: t

In: Identify whether the molecule CN(C)S(=O)(=O)N1CCN(C(=O)Cc2ccc(Cl)c(Cl)c2)C2C(N3CCC(O)C3)CCCC21.Cl (centres unmarked) records % binding at 100 nM below 70%.
Out: f

In: Lab log: compare recorded % binding at 100 nM with 70%; is it strictly lower for COC(=O)N1CCN(C(=O)Cc2ccc(F)c(Cl)c2)[C@@H]2[C@@H](N3CC[C@H](F)C3)CCC[C@@H]21 ?
Out: f

In: Does this molecule meet the criterion % binding at 100 nM < 70%? O=C(Cc1ccc(F)c(Cl)c1)N1CCN(S(=O)(=O)Cc2ccon2)[C@H]2CCC[C@H](N3CC[C@H](O)C3)[C@H]21
Out: f

In: Decide: % binding at 100 nM of COC(=O)N1CCN(C(=O)Cc2c[nH]c3ccccc23)[C@@H]2[C@@H](N3CCCC3)CCC[C@@H]21.Cl (racemic) strictly below 70%?
Out: t

Values from patent US20160122307A1
